Target: human Branched Chain Amino Acid Aminotransferase cytosolic form (hBCATc) (Homo sapiens)
Construct: inferred from purification on a Ni-charged chelating column with imidazole elution
Sequence (P54687 1-386): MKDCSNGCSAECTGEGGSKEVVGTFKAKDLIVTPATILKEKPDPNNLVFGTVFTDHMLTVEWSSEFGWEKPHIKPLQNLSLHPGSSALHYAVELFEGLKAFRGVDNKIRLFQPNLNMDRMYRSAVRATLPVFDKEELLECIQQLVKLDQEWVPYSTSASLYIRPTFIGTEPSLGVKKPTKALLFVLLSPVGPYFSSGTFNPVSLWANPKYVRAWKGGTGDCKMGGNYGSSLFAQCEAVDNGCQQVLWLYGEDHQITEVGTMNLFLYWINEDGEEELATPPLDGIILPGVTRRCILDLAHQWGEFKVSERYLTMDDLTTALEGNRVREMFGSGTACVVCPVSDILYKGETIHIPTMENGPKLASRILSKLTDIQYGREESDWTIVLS
Experiment: In vitro coupled enzyme assay, human BCAT cytosolic form
Details: inhibition of recombinant human BCATc; coupled glutamate dehydrogenase/NADH assay, 37° C., pH 7.8; read-out: rhBCATc
QUANTITY KIND: IC50
Answer by giving the amount and then stating its unit.

{"MOLECULE": "O=C(NNS(=O)(=O)c1ccccc1)c1cccc(Oc2ccccc2)c1 [Example 26]", "IC50": "34 µM"}
{"MOLECULE": "O=C(NNS(=O)(=O)c1ccccc1)c1ccc(NS(=O)(=O)c2ccccc2)cc1 [Example 15]", "IC50": "4.9 µM"}
{"MOLECULE": "O=C(NNS(=O)(=O)c1ccccc1Cl)c1ccc(Oc2ccccc2)cc1 [Example 20]", "IC50": "35 µM"}
{"MOLECULE": "O=C(NNS(=O)(=O)c1ccccc1)c1ccc([N+](=O)[O-])cc1 [Example 1]", "IC50": "40 µM"}

# input for lookup
INPUT: Tell me reported IC50 for O=C(NNS(=O)(=O)c1ccccc1)c1ccc(-c2ccccc2)cc1 [Example 25] , tested with human Branched Chain Amino Acid Aminotransferase cytosolic form (hBCATc) (Homo sapiens).
OUTPUT: 16 µM

* * *

QUANTITY KIND: melting point

// worked examples, melting point included
{"CHEM SMILES": "O=C(NNS(=O)(=O)c1ccccc1)c1ccc(CCC2(O)CCCCC2)cc1", "melting point": "158 to 159 °C"}
{"CHEM SMILES": "O=C(NNS(=O)(=O)c1ccccc1)c1ccc(-c2ccccc2)cc1", "melting point": "216 to 219 °C"}
{"CHEM SMILES": "O=C(NNS(=O)(=O)c1ccccc1)c1ccc(NS(=O)(=O)c2ccc(C(F)(F)F)cc2)cc1", "melting point": "98.5 to 99.4 °C"}
{"CHEM SMILES": "O=C(NNS(=O)(=O)c1ccccc1)c1ccc([N+](=O)[O-])cc1", "melting point": "193 to 195 °C"}

INPUT: Which value of melting point has been reported for "CS(=O)(=O)Nc1ccc(C(=O)NNS(=O)(=O)c2ccccc2)cc1" in the records?
OUTPUT: 185.6 to 186.5 °C

INPUT: Request the reported melting point associated with "O=C(NNS(=O)(=O)c1ccccc1)c1ccc(OCc2ccccc2)cc1"
OUTPUT: 159 to 160 °C

INPUT: What melting point value was documented for this compound, "O=C(NNS(=O)(=O)c1ccccc1)c1ccc(C#CC2(O)CCCCC2)cc1" ?
OUTPUT: 96 to 97 °C

INPUT: Query: melting point; subject: "O=C(NNS(=O)(=O)c1ccccc1)c1ccc(NCc2ccccc2)cc1"
OUTPUT: 214 to 215 °C

INPUT: Given the compound "CCCCc1ccc(S(=O)(=O)Nc2ccc(C(=O)NNS(=O)(=O)c3ccccc3)cc2)cc1" , what is its reported melting point?
OUTPUT: 76 to 77.1 °C
